- Test system: 786-0
- Method: NCI tumour cell line growth inhibition, 48 h
Calls of active or inactive are those of the source. Rule as the data show it: active = GI50 up to about 1.1 µM and inactive = higher.
Valid outcomes are listed here; reply with one: true = active, false = inactive

compound=COc1ccc(-c2oc3ccc(C)cc3c(=O)c2O)cc1 assigned_label=false
compound=C/C=C/C(=O)Oc1cccc2cccnc12 assigned_label=false
compound="CC1(C)C(CCO)CC1n1ccc(=O)[nH]c1=O (stereo unspecified)" assigned_label=false
compound=C=CCN(c1cc(OC)c2[nH]c(C(=O)O)c(C)c2c1[N+](=O)[O-])S(C)(=O)=O assigned_label=false
compound=O=C(O)c1cc2ccc3ccccc3c2oc1=O assigned_label=false

INPUT: Dear colleague, could you share the recorded outcome for `Nc1c(-c2nc3ccccc3[nH]2)sc(=S)n1-c1ccc(Cl)cc1` when you have a moment?
OUTPUT: false

INPUT: Please state the recorded outcome for this compound: `C=CCOCn1cc(F)c(=O)[nH]c1=O`
OUTPUT: false

INPUT: What did the test return for N#CC(C#N)=c1ccc(=C2N3CCCC3CN2C23CC4CC(CC(C4)C2)C3)cc1 (stereo unspecified) ?
OUTPUT: false

INPUT: Outcome? O=C(O)C1C(C(=O)Nc2ccc3c(c2)Cc2ccccc2-3)C2(Cl)C(Cl)=C(Cl)C1(Cl)C2(Cl)Cl (stereo unspecified)
OUTPUT: false

INPUT: Hi team, can someone confirm the assay call for `COc1ccc2c(c1)c1c(C)c3cnccc3c(C)c1n2CCCN` ?
OUTPUT: true

INPUT: Hi, sorry to bother you, what did the test record for `COc1cc2oc(=O)cc(C)c2cc1[N+](=O)[O-]` ?
OUTPUT: false

---

- System: MOLT-4
- Method: NCI tumour cell line growth inhibition, 48 h
Calls of active or inactive are those of the source. No stated cut-off is given here; in the data, active = GI50 up to about 1.1 µM and inactive = higher.
// one of active, inactive, no free text

compound=N#Cc1c(Nc2ccccc2)[n+]([O-])c2ccc(Cl)cc2[n+]1[O-] assigned_label=inactive
compound="CC(C)C1N(C)c2ccc(Cl)cc2[C@H]2c3ccccc3CCN12 (some centres undefined)" assigned_label=inactive
compound=C[n+]1c(-c2ccccc2)cc2/c(=C\c3ccccc3)c3ccccc3n21 assigned_label=inactive
compound=Cc1cc(N(CCC#N)CCC#N)ccc1/C=C/C(=O)Nc1ccccc1Cl assigned_label=inactive

INPUT: // outcome(item) with item = `Cc1cccc(-c2cc(O)c3cc(C)cnc3n2)c1`
OUTPUT: active

INPUT: Call for entry `C=CCN(c1cc(OC)c2[nH]c(C(=O)O)c(C)c2c1[N+](=O)[O-])S(C)(=O)=O` :
OUTPUT: inactive

INPUT: Would you mind telling me which call this test gave `COc1ccc2oc(-c3ccncc3)cc(=O)c2c1` ?
OUTPUT: inactive

INPUT: Tell me the assay call for CN1C(=O)C2C3C=C4c5ccccc5N(c5ccccc5)C4(C2C1=O)[C@H]1C(=O)N(C)C(=O)[C@@H]31 (some centres undefined) please.
OUTPUT: inactive

INPUT: Hi, do you know how CC(N)Cc1ccc(C(=O)Cl)cc1 (centres undefined) came out in this test?
OUTPUT: inactive

INPUT: What did this assay record as the result for Cc1cn(CCCCCCOC(=O)NC(CCCNC(=N)N)C(=O)O)c(=O)[nH]c1=O (centres undefined) ?
OUTPUT: inactive

INPUT: Which result was noted for this compound in the test: COc1ccc2nc3cc(Cl)ccc3c(NC(C)CCCN(CCCl)CCCl)c2c1 (centres undefined)
OUTPUT: active

INPUT: Record lookup: outcome of this test for `CCOC(NC(=O)CC)(C(F)(F)F)C(F)(F)F` ?
OUTPUT: inactive

INPUT: What is the recorded call for this compound in the test? `CO/C(=N\N=C(/C)C(F)(F)F)c1ccncc1`
OUTPUT: inactive

INPUT: How was `O=c1c2cc(S(=O)(=O)O)ccc2nc(COc2ccc(Oc3ccc(Cl)cc3Cl)cc2)n1-c1ccc(Cl)cc1Oc1c(Cl)cccc1Cl` classified in this test?
OUTPUT: inactive

---

- System: A498
- Method: NCI tumour cell line growth inhibition, 48 h
Active and inactive are the calls of the source. Cut-off read from the data, not from the text of the source: active = GI50 up to about 1.1 µM and inactive = higher.
Measured parameter: GI50

compound=NNC(=O)CSc1nc2ccc(I)cc2c(=O)n1Cc1ccccc1 measured_parameter=GI50 result="14.2 µM (inactive)"

INPUT: Quick check: GI50 of CCCCCCCCCCCCNC(=O)CCC(NC(=O)c1ccc(N(C)Cc2cnc3nc(N)nc(N)c3n2)cc1)C(=O)NCCCCCCCCCCCC (centres undefined) ?
OUTPUT: 42.8 µM (inactive)

INPUT: Tell me the measured GI50 of S=C1C(CCCOCc2ccccc2)C2CCCC23CC2(CCN13)OCCS2 (centres undefined) , please.
OUTPUT: > 10 µM (inactive)

INPUT: Look at this compound and give its reported GI50. `Cc1nc2ccccn2c1/N=N/c1ccc(C(=O)NN)cc1`
OUTPUT: 27.7 µM (inactive)

INPUT: What value of GI50 has been reported for the following compound? `Brc1cccc(Nc2nc(-c3cccs3)nc3ccc(Br)cc23)c1`
OUTPUT: 31.7 µM (inactive)

INPUT: Field request: GI50 | item: `Cc1cc(S(=O)(=O)Nc2nc3ccccc3nc2-c2ccc(Cl)cc2)c(S)cc1Cl`
OUTPUT: 16.3 µM (inactive)

INPUT: Consider the compound CC(C)(C)C1CCC2c3c([nH]c4ccccc34)C3C(=O)N(c4cc(Br)cc(Br)c4)C(=O)C3C2C1 (centres undefined) and give its measured GI50.
OUTPUT: 19.7 µM (inactive)

INPUT: // lookup GI50 for CCOC(=O)[C@@H]1ON2O[C@H](OC3CCCCC3c3ccccc3)C[C@H]3OC(=O)[C@@H]1C32 (some centres undefined)
OUTPUT: > 100 µM (inactive)

INPUT: I'd like to know its GI50. The compound in question is `C[C@@H]1OC(=O)/C(=C\N(C)C)[C@H]2CC(=O)N(CCc3cn(S(=O)(=O)C(F)(F)F)c4ccccc34)C[C@H]12`
OUTPUT: > 100 µM (inactive)

---

- Test system: XF498
- Method: NCI tumour cell line growth inhibition, 48 h
Calls of active or inactive are those of the source. Cut-off read from the data, not from the text of the source: active = GI50 up to about 1.1 µM and inactive = higher.
Below is a list of entries, each paired with its recorded GI50 value.

INPUT: Endpoint output: GI50 of CN1C(=O)C2C3C=C4c5ccccc5N(c5ccccc5)C4(C2C1=O)[C@H]1C(=O)N(C)C(=O)[C@@H]31 (stereo partly specified) . Value?
OUTPUT: > 100 µM (inactive)

INPUT: Look up GI50 for this compound: `NC(=O)C(=O)Cc1nc2ccccc2s1`
OUTPUT: > 100 µM (inactive)

---

- Test system: MDA-N
- Method: NCI tumour cell line growth inhibition, 48 h
The source made the active and inactive calls. Rule as the data show it: active = GI50 up to about 1.1 µM and inactive = higher.
// one of label 1 = active, label 0 = inactive, no free text

molecule=Cc1cn2c(/C=C3/C(=O)Nc4cccc(Cl)c43)c(Cl)nc2s1 assigned_label="label 0"
molecule="Cc1ccc(/N=C2\\OP(=O)(Nc3ccc(C)cc3)Oc3ccccc32)cc1 (stereo unspecified)" assigned_label="label 0"
molecule=CCOC(=O)c1ccc(/N=c2/[nH]c3ccccc3s/c2=N/c2ccc(C(=O)OCC)cc2)cc1 assigned_label="label 0"
molecule=N#Cc1c(Nc2ccccc2)[n+]([O-])c2ccc(Cl)cc2[n+]1[O-] assigned_label="label 0"
molecule=CCOC(=O)c1nc2cc(C(F)(F)F)ccc2nc1Oc1ccc(OC)cc1 assigned_label="label 0"
molecule="O=P1(c2ccccc2)C2=CCC=CC2C(c2ccccc2)N1Cc1ccccc1 (stereo unspecified)" assigned_label="label 0"

INPUT: Tell me the recorded outcome of this test for `N#Cc1c(-c2ccc(Cl)cc2)c2c([nH]c1=O)-c1ccccc1SC2` .
OUTPUT: label 0

INPUT: Outcome? `NC(=O)c1sc2nc3ccccc3n2c1N`
OUTPUT: label 0

INPUT: Assay outcome for `OC(Cc1ccc2ccccc2n1)(C(F)(F)Cl)C(F)(F)Cl` : what was it?
OUTPUT: label 0

INPUT: Short answer needed: outcome of this test for `CN1CCN(CC(=O)Nc2cccc3ccccc23)CC1` ?
OUTPUT: label 0

INPUT: Called result for `Cc1[nH]c2ccccc2c1-c1cc(-c2cc(-c3c(C)[nH]c4ccccc34)on2)no1`
OUTPUT: label 0

INPUT: Recorded test outcome, item `CCOP(=O)(C/C=C/Cn1ncc(=O)[nH]c1=O)OCC`
OUTPUT: label 0

INPUT: Could you check what this test reported for Cc1ccc(N2C(N)=C(C#N)C(C#N)(C#N)C2c2ccccc2)cc1 (stereo unspecified) ?
OUTPUT: label 0

INPUT: Called result for `COc1ccc2c(c1)c1c(C)c3cnccc3c(C)c1n2CCCN`
OUTPUT: label 1

---

- Test system: HCC 2998
- Method: NCI tumour cell line growth inhibition, 48 h
Activity calls are given as the source filed them. No stated cut-off is given here; in the data, active = GI50 up to about 1.1 µM and inactive = higher.
Form entry, call: pick from active, inactive

INPUT: Answer briefly: the call reported for `Cc1nc2ccccn2c1/N=N/c1ccc(C(=O)NN)cc1` in this assay.
OUTPUT: inactive
